Values compiled from the Kinase Knowledgebase extract (Sharma et al. 2016).

- target-or-test-system: EGFR (murine) (UniProt P00533)
- Sequence (P00533 whole entry, looked up): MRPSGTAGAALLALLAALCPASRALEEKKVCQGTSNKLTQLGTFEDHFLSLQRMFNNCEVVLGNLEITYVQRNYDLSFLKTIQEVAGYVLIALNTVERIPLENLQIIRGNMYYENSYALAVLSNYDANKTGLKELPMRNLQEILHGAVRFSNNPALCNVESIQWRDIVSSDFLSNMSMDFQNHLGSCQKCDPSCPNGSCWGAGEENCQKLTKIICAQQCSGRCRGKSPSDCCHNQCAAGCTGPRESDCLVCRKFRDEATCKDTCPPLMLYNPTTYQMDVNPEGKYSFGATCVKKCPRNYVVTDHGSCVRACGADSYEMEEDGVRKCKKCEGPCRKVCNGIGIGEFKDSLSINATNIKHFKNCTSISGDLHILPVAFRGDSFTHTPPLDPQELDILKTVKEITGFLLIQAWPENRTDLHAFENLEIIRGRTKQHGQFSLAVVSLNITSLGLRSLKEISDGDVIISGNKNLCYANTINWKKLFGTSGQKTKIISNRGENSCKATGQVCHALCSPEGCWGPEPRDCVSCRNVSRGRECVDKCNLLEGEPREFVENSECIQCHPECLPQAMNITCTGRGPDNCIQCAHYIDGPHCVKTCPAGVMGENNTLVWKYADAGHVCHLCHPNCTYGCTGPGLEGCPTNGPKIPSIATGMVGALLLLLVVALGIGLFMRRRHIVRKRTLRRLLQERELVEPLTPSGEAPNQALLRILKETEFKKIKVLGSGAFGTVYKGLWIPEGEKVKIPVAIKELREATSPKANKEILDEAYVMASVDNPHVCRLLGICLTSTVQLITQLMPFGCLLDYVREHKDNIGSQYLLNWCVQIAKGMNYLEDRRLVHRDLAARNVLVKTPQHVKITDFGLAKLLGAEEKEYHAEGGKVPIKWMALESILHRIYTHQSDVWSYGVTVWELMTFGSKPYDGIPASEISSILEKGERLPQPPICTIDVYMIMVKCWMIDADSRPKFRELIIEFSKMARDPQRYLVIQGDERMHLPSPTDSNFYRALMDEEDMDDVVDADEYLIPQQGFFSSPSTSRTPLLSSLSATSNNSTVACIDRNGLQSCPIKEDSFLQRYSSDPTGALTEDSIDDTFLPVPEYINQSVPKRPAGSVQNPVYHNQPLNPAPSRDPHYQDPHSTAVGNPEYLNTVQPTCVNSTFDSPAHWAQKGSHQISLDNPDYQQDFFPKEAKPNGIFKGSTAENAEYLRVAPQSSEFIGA
- run-conditions: nih3t3/c7
pIC50: −log10 of the molar value.
reported-endpoint: pIC50

# input compound: COC(=O)c1cc(C)c(/C=C2\C(=O)Nc3ccccc32)[nH]1 ; wanted: its pIC50
< 4.00

# input compound: CCN(CC)CCNC(=O)c1ccc(/C=C2\C(=O)Nc3cc(-c4ccccc4)ccc32)[nH]1 ; wanted: its pIC50
< 4.00

# input compound: Cc1cc(C(=O)O)[nH]c1/C=C1\C(=O)N(C)c2ccccc21 ; wanted: its pIC50
< 4.00

# input compound: CCOC(=O)c1cc(C)c(/C=C2\C(=O)Nc3ccc(Cl)cc32)[nH]1 ; wanted: its pIC50
< 4.00

# input compound: Cc1[nH]c(/C=C2\C(=O)Nc3cc(-c4cccnc4)ccc32)c(C)c1C(=O)NCCN1CCCC1 ; wanted: its pIC50
< 4.00

# input compound: Cc1[nH]c(/C=C2\C(=O)Nc3ccc(Br)cc32)c(C)c1C(=O)NCCN1CCCC1 ; wanted: its pIC50
< 4.00
